All figures here come from ChEMBL document CHEMBL3414495.

target: Cholinesterase (Homo sapiens)
Sequence (P06276 whole entry): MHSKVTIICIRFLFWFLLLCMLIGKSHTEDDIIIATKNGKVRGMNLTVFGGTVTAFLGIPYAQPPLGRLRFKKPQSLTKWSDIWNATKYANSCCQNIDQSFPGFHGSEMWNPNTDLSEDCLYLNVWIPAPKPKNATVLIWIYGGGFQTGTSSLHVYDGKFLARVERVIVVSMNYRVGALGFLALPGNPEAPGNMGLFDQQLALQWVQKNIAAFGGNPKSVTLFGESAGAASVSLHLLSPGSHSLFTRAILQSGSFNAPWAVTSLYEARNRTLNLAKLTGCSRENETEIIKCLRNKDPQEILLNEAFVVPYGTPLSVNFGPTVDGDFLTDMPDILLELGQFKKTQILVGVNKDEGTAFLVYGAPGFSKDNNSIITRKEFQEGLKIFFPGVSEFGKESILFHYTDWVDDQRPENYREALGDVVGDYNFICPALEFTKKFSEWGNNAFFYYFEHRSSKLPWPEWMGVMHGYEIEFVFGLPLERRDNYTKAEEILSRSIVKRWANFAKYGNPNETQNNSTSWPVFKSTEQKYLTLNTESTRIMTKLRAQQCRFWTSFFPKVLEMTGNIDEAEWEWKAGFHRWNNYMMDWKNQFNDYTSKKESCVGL
Please respond with reported IC50 for every item in the list.
# output: bare number, implied unit nM

For the compound "Cc1c(Cl)c(=O)oc2cc(OCCN3CCN(CCCNc4c5c(nc6ccccc46)CCCC5)CC3)ccc12" , give its measured IC50 value.
124

Give the value of IC50 reported for the following: "Cc1c(C)c2ccc(OCCN3CCN(CCCNc4c5c(nc6ccccc46)CCCC5)CC3)cc2oc1=O"
113

----------
target: Acetylcholinesterase (Electrophorus electricus)
Sequence (O42275 whole entry): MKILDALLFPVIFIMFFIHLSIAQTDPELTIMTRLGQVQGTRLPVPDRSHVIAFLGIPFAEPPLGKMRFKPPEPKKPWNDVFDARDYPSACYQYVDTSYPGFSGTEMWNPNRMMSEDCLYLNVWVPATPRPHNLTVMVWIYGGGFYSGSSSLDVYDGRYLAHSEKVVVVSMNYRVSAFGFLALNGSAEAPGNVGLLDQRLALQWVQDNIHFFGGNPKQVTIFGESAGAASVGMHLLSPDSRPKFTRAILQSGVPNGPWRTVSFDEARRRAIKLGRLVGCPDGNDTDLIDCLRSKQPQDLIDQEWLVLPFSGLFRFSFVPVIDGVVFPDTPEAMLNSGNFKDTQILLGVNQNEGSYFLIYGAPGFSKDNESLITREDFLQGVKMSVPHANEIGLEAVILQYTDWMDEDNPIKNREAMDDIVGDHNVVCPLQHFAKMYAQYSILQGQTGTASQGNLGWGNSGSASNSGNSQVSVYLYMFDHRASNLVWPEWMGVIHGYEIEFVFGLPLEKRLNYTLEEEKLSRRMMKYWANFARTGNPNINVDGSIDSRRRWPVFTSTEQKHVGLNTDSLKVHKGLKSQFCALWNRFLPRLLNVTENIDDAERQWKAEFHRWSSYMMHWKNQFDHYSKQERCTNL
quantity.kind: pIC50
On this scale, pIC50 is minus log10 of a concentration expressed in M (mol/L).

Complete the entry with pIC50 for "O=c1ccc2ccc(OCCCN3CCN(CCCNc4c5c(nc6ccccc46)CCCC5)CC3)cc2o1"
7.62

Please report the measured pIC50 for "O=c1ccc2ccc(OCCCCCN3CCN(CCNc4c5c(nc6ccccc46)CCCC5)CC3)cc2o1"
6.86

Name the recorded pIC50 of the item "O=c1ccc2ccc(OCCCCN3CCN(CCCNc4c5c(nc6ccccc46)CCCC5)CC3)cc2o1" in your answer.
7.44

Provide pIC50 value for the following compound: "Cc1cc2ccc(OCCN3CCN(CCCNc4c5c(nc6ccccc46)CCCC5)CC3)cc2oc1=O"
7.25

Using known records, supply pIC50 for "O=c1ccc2ccc(OCCCCCCN3CCN(CCCNc4c5c(nc6ccccc46)CCCC5)CC3)cc2o1"
7.18

Find the measured pIC50 of "Cc1cc(=O)oc2cc(OCCN3CCN(CCCNc4c5c(nc6ccccc46)CCCC5)CC3)ccc12" and report it.
7.41

Give me measured pIC50, please, for this compound: "Nc1cc(=O)oc2cc(OCCN3CCN(CCCNc4c5c(nc6ccccc46)CCCC5)CC3)ccc12"
7.41

Give the measured pIC50 for "O=c1cc(-c2ccccc2)c2ccc(OCCN3CCN(CCCNc4c5c(nc6ccccc46)CCCC5)CC3)cc2o1"
6.71

State, in one line, measured pIC50 of "O=c1ccc2ccc(OCCCN3CCN(CCNc4c5c(nc6ccccc46)CCCC5)CC3)cc2o1"
7.32
